Each recorded value in this set is attributed to PubChem BioAssay AID485344.

molecular target: D(2) dopamine receptor (Homo sapiens); assay: HTS Assay for Allosteric Antagonists of the Human D2 Dopamine Receptor: Primary Screen for Antagonists; details: HEK293 TREx D2 cells, calcium flux, dopamine EC80; at 10 µM; active compounds read high; also: 0% is about no effect
Among all 340,000 compounds or so, about 6,900 (2%) were called active. This is one part of a sample in which actives are shown more often than they occur.
Quick reference: inhibition of the listed items.
property measured: inhibition (%)

                                   compound                     measurement_target  property_measured  observed_result
0  CCc1ccc(NC(=O)Cn2ncn3c(cc4ccccc43)c2=O)cc1  D(2) dopamine receptor (Homo sapiens)         inhibition             12.2
1  CSCC(=O)N1CCCC(C(=O)c2cc(F)ccc2F)C1 (stereo unspecified)  D(2) dopamine receptor (Homo sapiens)         inhibition            -7.86
2  CCOc1ccc(C(O)Cn2c(=N)n(CCN3CCCCC3)c3ccccc32)cc1 (stereo unspecified)  D(2) dopamine receptor (Homo sapiens)         inhibition            -7.44
3  O=C(NNC(=O)c1cc(S(=O)(=O)N2CCCCC2)ccc1Cl)c1ccccc1O  D(2) dopamine receptor (Homo sapiens)         inhibition             9.25
4  COc1cccc(OCC(O)CN2CCN(CCO)CC2)c1 (stereo unspecified)  D(2) dopamine receptor (Homo sapiens)         inhibition            -3.18
5  O=S(=O)(NCCS(=O)(=O)N1CCN(c2ccccc2)CC1)c1ccc(F)cc1  D(2) dopamine receptor (Homo sapiens)         inhibition            -7.02

----------
biological target: D(2) dopamine receptor (Homo sapiens) (UniProt P14416); experiment: HTS Assay for Allosteric Antagonists of the Human D2 Dopamine Receptor: Primary Screen for Antagonists; conditions: HEK293 TREx D2 cells, calcium flux, dopamine EC80; at 10 µM; active compounds read high; also: 0% is about no effect
Sequence (P14416 whole entry, looked up): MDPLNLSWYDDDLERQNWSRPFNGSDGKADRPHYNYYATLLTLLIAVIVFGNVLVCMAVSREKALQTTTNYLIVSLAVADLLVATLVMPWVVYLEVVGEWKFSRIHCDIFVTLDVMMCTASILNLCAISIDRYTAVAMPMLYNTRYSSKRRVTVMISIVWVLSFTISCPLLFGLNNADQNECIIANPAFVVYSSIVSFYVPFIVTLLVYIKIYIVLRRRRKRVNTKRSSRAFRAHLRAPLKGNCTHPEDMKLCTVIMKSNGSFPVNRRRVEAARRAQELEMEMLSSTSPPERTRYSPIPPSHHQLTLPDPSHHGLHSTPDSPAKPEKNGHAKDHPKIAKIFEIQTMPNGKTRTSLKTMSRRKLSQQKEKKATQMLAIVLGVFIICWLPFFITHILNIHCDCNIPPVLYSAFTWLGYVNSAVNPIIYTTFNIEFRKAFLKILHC
Among all 340,000 compounds or so, about 6,900 (2%) were called active. Many of the other results were omitted from the sample, so actives are more common in it than they were.

compound	inhibition, %
CCCCNC(=O)Cn1nc(C)c(S(=O)(=O)N2CCOCC2)c1C	4.53
Cc1cccc(-c2oc3ccc(-c4ccc5c(c4)OCO5)cc3c2C#Cc2cncn2C)c1	11.3
C=CCSc1ccc(S(=O)(=O)N2CCN(C)CC2)cn1	6.94
COc1ccc(CNC(=O)C(=O)N2CCC3(CC2)OCCN3S(=O)(=O)c2ccc(C)cc2)cc1	-3.99
CCOC(=O)C1(CC2CCCCO2)CCN(Cc2nc(-c3cccs3)oc2C)CC1 (stereo unspecified)	69.3
Cc1nc(SCC(=O)NC2CCCCC2C)c(C#N)c(C)c1C (stereo unspecified)	-2.83
O=C(CN1C(=O)NC2(CCOc3ccccc32)C1=O)NCc1ccc(F)cc1 (stereo unspecified)	26.3
COc1cccc(CC2(CO)CCCN(Cc3nc(-c4cccs4)oc3C)C2)c1 (stereo unspecified)	-28.2
O=C(Nc1ccc2c(c1)OCCO2)C1CCCC1	3.86
C#CCOCCOCCOCCNc1nc(N2CCN(C(=O)[C@H](CCCCN)n3cc(CCC(=O)O)nn3)CC2)nc(N2CCN(C(=O)[C@H](CCCCN)n3cc(CC(C)O)nn3)CC2)n1 (stereo partly specified)	-5
CC1CN(c2nc(Nc3ccccc3)nc(N)c2[N+](=O)[O-])CC(C)O1 (stereo unspecified)	13.4
O=C(CN1CCCCC1)Nc1ccccc1C(=O)NC1CC1	7.71
COCCNc1nc(N)c([N+](=O)[O-])c(N2CCCCCC2)n1	-9.71
c1ccc2cc(OCCN3CCCC3)ccc2c1	6.73
Cc1cccc(N2CCN(C(=O)c3cccc(N4C(=O)C5C6C=CC(C6)C5C4=O)c3)CC2)c1C (stereo unspecified)	-3.04
CN(C)S(=O)(=O)c1cccc(NC(=O)COc2ccc3ccccc3c2)c1	7.96
O=C1/C(=C/c2ccc(F)cc2)SC(=S)N1CCCC(=O)N1CCCCC1CCO (stereo unspecified)	31.6
CCN(CC(=O)Nc1c(F)cccc1F)C(=O)c1ccc(Sc2nncn2C)c([N+](=O)[O-])c1	-7.81
CCc1nnc(NC(=O)C2CCN(C(=O)c3ccccc3C)CC2)s1	14.3
CCN1CCN(c2nc(Nc3cccc(F)c3)nc(N)c2[N+](=O)[O-])CC1	73.4
O=C(CCCN1C(=O)/C(=C\c2ccccc2)SC1=S)Nc1ccccc1O	-8.37
